assay: clinical; conditions: human, plasma, oral, 16 mg, AUC0–inf, 16 mg q.d., cycle 1 Day 1, mean
attribute measured: AUC(0-inf) (ng·h/mL)
Numeric answer only, unit ng·h/mL assumed.

Ask: Quick check: AUC(0-inf) of `C=CC(=O)N1CC[C@H](n2nc(C#Cc3cc(OC)cc(OC)c3)c3c(N)ncnc32)C1` ?
Result: 549

---

assay: clinical; conditions: human, plasma, oral, 20 mg, AUC0–last, 20 mg q.d., cycle 1 Day 1, mean
attribute measured: AUC(0-t) (ng·h/mL)
Numeric answer only, unit ng·h/mL assumed.

Ask: Quick check: AUC(0-t) of `C=CC(=O)N1CC[C@H](n2nc(C#Cc3cc(OC)cc(OC)c3)c3c(N)ncnc32)C1` ?
Result: 1190

---

assay: clinical; conditions: human, plasma, oral, 24 mg, Cmax, 24 mg t.i.w., cycle 1 Day 1, mean
attribute measured: Cmax (ng/mL)
Numeric answer only, unit ng/mL assumed.

Ask: Quick check: Cmax of `C=CC(=O)N1CC[C@H](n2nc(C#Cc3cc(OC)cc(OC)c3)c3c(N)ncnc32)C1` ?
Result: 258

---

experiment: clinical; conditions: human, plasma, oral, 16 mg, T1/2, 16 mg t.i.w., cycle 1 Day 1, mean
attribute measured: half-life

Ask: Quick check: half-life of `C=CC(=O)N1CC[C@H](n2nc(C#Cc3cc(OC)cc(OC)c3)c3c(N)ncnc32)C1` ?
Result: 2.11 h

---

test: clinical; settings: human, plasma, oral, 8 mg, Cmax, 8 mg t.i.w., cycle 1 Day 1, mean
attribute measured: Cmax (ng/mL)
Numeric answer only, unit ng/mL assumed.

Ask: Quick check: Cmax of `C=CC(=O)N1CC[C@H](n2nc(C#Cc3cc(OC)cc(OC)c3)c3c(N)ncnc32)C1` ?
Result: 85.5

---

test: clinical; settings: human, plasma, oral, 200 mg, Cmax, 200 mg t.i.w., cycle 1 Day 1, mean
attribute measured: Cmax (ng/mL)
Numeric answer only, unit ng/mL assumed.

Ask: Quick check: Cmax of C=CC(=O)N1CC[C@H](n2nc(C#Cc3cc(OC)cc(OC)c3)c3c(N)ncnc32)C1 [futibatinib] ?
Result: 1290

---

assay: clinical; conditions: human, plasma, oral, 16 mg, Tmax, 16 mg q.d., cycle 1 Day 21, median
attribute measured: Tmax (h)
Numeric answer only, unit h assumed.

Ask: Quick check: Tmax of C=CC(=O)N1CC[C@H](n2nc(C#Cc3cc(OC)cc(OC)c3)c3c(N)ncnc32)C1 [futibatinib] ?
Result: 2.07

---

test: clinical; conditions: human, plasma, oral, 20 mg, T1/2, 20 mg q.d., cycle 1 Day 1, mean
attribute measured: half-life

Ask: Quick check: half-life of `C=CC(=O)N1CC[C@H](n2nc(C#Cc3cc(OC)cc(OC)c3)c3c(N)ncnc32)C1` ?
Result: ~3 h

---

test: clinical; conditions: human, plasma, oral, 80 mg, AUC0–inf, 80 mg t.i.w., cycle 1 Day 1, mean
attribute measured: AUC(0-inf) (ng·h/mL)
Numeric answer only, unit ng·h/mL assumed.

Ask: Quick check: AUC(0-inf) of `C=CC(=O)N1CC[C@H](n2nc(C#Cc3cc(OC)cc(OC)c3)c3c(N)ncnc32)C1` ?
Result: 9560

---

assay: clinical; settings: human, plasma, oral, 120 mg, Cmax, 120 mg t.i.w., cycle 1 Day 1, mean
attribute measured: Cmax
Remember to follow the number with its unit.

Ask: Quick check: Cmax of `C=CC(=O)N1CC[C@H](n2nc(C#Cc3cc(OC)cc(OC)c3)c3c(N)ncnc32)C1` ?
Result: 713 ng/mL
